Attribution: the RNAGym collection of RNA variant scans (doi:10.1073/pnas.2313332121)

B1: TPR t1 (parent)
chain: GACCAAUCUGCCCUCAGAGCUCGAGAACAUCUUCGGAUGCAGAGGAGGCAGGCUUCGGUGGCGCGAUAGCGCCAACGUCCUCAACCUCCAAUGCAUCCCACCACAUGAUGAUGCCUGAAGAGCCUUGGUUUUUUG

Variants of: B1
Assay: polymerase ribozyme fitness, log enrichment relative to wild type (log ratio); higher = more active; in vitro selection for triplet polymerase activity
Classification field: met = polymerase ribozyme fitness (log ratio) at or over -3; not met = polymerase ribozyme fitness (log ratio) under -3.

• GACCAAGCUGCCCUCAGAGCUCGAGAACAUCUUCGGAUGCAGAGGAGGCAGGCUUGGGUGGCGCGAUAGCGCCAACGUCCUCAACGUCCAAUGCAGCCCACCACAUGAUGAUGCCUGAAGAGCCUUGGUUUUUUG [U7G C56G C86G U96G] = met
• GACCAAUCUGCCCUCAGAGCUCGAGAACAUCUUCGGAUGCAGAGGAGGAAGGCUUCGGUGGCGCGAUAGCGCCAACGUCCUCAACCUCCAAUGCAUCCCACCACAGGAUGAUGCCUGAAGAGCCUUGGUUUUUUG [C49A U106G] = met
• GACCAAUCUGCCCUCAGAGCUCGAGAACAUCUUCGGAUGCAGAGGUGGCAGGCUUCGGUGGCGCGAUAGCGCCAACCUCCUCAACCUCCAAUGCAUCCCACCACAUGAUGAUGCCUGAAGAGCCUUGGUUUUUUG [A46U G77C] = met
• GACCAAUCUGCCCUCAGAGCUCGAGAACAUCUUCGGAUGCAGUGGAGGCAGGCUUCGGUGGCGCGAUAGCGCCAACGUCCUCAACCUCCAAUGCAUCCCACCACAUGAUGAUGCCUGAACAGCCUUGGUUUUUUG [A43U G120C] = met
• GACCAAUCUGCCCUCAGAGCUCGAGAACAUCUUCGGAUGCAGAGGAGGCAGGCUUCGGUGGCGCGAUACCGCCAACGUCCUCAACAUCCAAUGUAUCCCACCACAUGAUGAUGUCUGAAGAGCCUUGGUUUUUUG [G69C C86A C94U C114U] = not met
• GACCAAUCUGCCCUCAGAGCUCGAGAACAUCUUCGGAUGCAGAGGAGGCAGUAUUCGGUGGCGCGAUAGCGCCAACGUCCUCAACCUCCAAUGCAUCCCACCACAUGAUGAUGCCUGAAGAGCCUUGGUUUUUUG [G52U C53A] = met
• GACCAAGCUGCCGUCAGAGCUCGAGAACAUCUUCGGAUGCAGAGGAGGCAGGCUUCGGUGGCGCGAUAGCGCCAACGUCCUCAACCUCCAAUGCAUCCCACCACAUGAUGAUGCCUGAAGAGCCUUGGUUUUUUG [U7G C13G] = met
• GACCAAUCUGCCCUCAGAGCUCGAGAUCAUCUUCGGAUGCAGAGGAGGCAGGCUUCGGUGGCGCGAUAGCGCCAACGUCCUCAACCUUCAAUGCAUCCCACAACAUGAUGAUGCCUGAAGAGCCUUGGUUUUUUG [A27U C88U C102A] = not met
• GACCAAUCUCCCCUCAGAGCUCGAGAACAUCUUCGGAUGCAGAGGAGGCAGGCUUCGGUGGCGCGAUAGCGCCAACGUCCUCAACCUCCAAUGCAUCCCACCACAUGAUGAUGCCUGAAGAGCCUUGGUUUUUUG [G10C] = met
• GACCAGUCUGCCCUCAGAGCUCGAGAACAUCUUCGGAUGUAGAGGAGGCAUGCUUCGGUGGCGCGAUAGCGCCAACGUCCUCAACCUCCAAUGCAUCCCACCACAUGAUGAUGCCUGAAGAGCCUUGGUUUUUUG [A6G C40U G51U] = not met
• GACCAAUCUGCCCUUAGAGCUCGAGAACAUCUUCGGAUGCAGAUGAGGCAGGCUUCGGUGGCGCGAUAGCCCCAACGUCCUCAACCUCCAAUGCAUCCCACCACAUGAUGAUGCCUGAAGAGCCUUGGUUUUUUG [C15U G44U G71C] = met
• GACCAAUCUGCCCUUAGAGCUCGAGAACAUCUUCGGAUGCAGAGGAGGCAGGCUUCGGUGGCGCGAUAGCGCCAACGUCCUCAACCUCCAAUGCAUCCCACCACAUGAUGAUGACUGAAGAGCCUUGGUUUUUUG [C15U C114A] = not met
• GACCAAUCUGCCCUCAGAGCUCAAGAACAUCUUCGGAUGCAGAGGAGGCAGGCUUCGGUGGCGCGAUAGCGCCAACGUCCUCAACCUCCAAUGCAUCCCACCACAUGAUGAUGCCUGAAGAGACUUGGUUUUUUG [G23A C123A] = not met
• GACCAAUCUGCCCUCAGAGCUCGAGAACAUCUUCGGAUGCAGAGGAAGCAGGCUUCGGUGGCGCGAUAGCGCCAACGUCCUCAACCUCCCAUGCAUCCCACCACAUGAUGAAGCCUGAAGAGCCUUGGUUUUUUG [G47A A90C U112A] = met
• GACCAAUCUGCCCUCAGAGCUCGAGAACGUCCUCGGAUGCAGAGGAGGCUGGCUUCGGUGGCGCGAUAGCGCCAACGUCCUCAACCUCCAAUGCAUCCCACCACAUGAUGAUGCCUGAAGAGCCUUGGUUUUUUG [A29G U32C A50U] = met
• GACCAAUCUGCCCUCAGAGCUCGAGAACAUCUUCGGAUGCAGAGGAGGCAGGCUUCGGUGGCGCGAUAGUGCCAACGUCAUCAACCUCCAAUGCGUCCCACCACAUGAUGGUGCCUGAAGAGCCUUGGUUUUUUG [C70U C80A A95G A111G] = not met
• GACCAAUCUGCCCUCAGAGCUCGAGAACAUCUUCGGAUGCAUAGCAGGCAGGCUUCGGUGGCGCGAUAGCGCCAAUGUCCUCAACCUCCAAUGCAUCCCACCACAUGAUGAUGCCUGAAGAGCCUUGGUUUUUUG [G42U G45C C76U] = met
• GACCAAUCUGCCCUCAGAGCUCGAGAACAUCUUCGGAUGCAGAGGAGGCAGGCUUCGGUGGCGCGAUAGCGCCAACGUCCUCAACCUCCAAUGCAUCCCUCCACAUGAUUAUGCCUGAAGAGCCUUGGUUUUUUG [A100U G110U] = met
• GUGCAAUCUGCCCUCAGAGCUCGAGAACAUCUUCGGAUGCAGAGGAGGCAGGCUUCGGUGGCGCGAUAGCGCCAACGUCCUCAACCUCCAAUGCAUCCCACCACAUGAUGAUGCCUGAAGAGGCUUGGUUUUUUG [A2U C3G C123G] = met
• GACCAAUCUGCCCUCAGAGCUCGAGAACAUCUUCGGAUGCAGAGGAGGCAGGCUUCGGCGGCGCGAUAGCGCCAACGUCCUCAACCUCCAAUGCAUCCCACCACAUGGUGAUGCCUGAAGAGCCUUGGUUUUUUG [U59C A108G] = met
• GACGAAUCUGCCCUCAGAGCUCGAGAACAUCUUAGGAUGCAGAGGAGGCAGGCUUCGGUGGCGCGAUAGCGGCAACGUCCUCAACCUCCAAUGCAUCCCACCACAUGAUGAUGCCUGAAGAGCCUUGGUUUUUUG [C4G C34A C72G] = not met
• GACCAAUCUGACCUCAGAGCUCGAGAACAUCUUCGGAUGCAGAGGAGGCAGGCUUCGGUGGUGCGAUAGCGCCAACGUCCUCAACCUCCAAUGCAUCCCACCACAUGAUGAUGCCUGAAGAGCCUUGGUUUUUUG [C11A C62U] = met
• GACCAAUCUGCCCUCCGAGCUCGAGAACAUCUUCGGAUGCAGAGGAGGCAGGCUUCGGUGGGGCGAUAGCGCCGACGUCCUCAACCUCCAAUGCAUCCCACCACAUGAUGAUGUCUGAAGAGCCUUGGUUUUUUG [A16C C62G A74G C114U] = not met
• GACCAAGCUGCCCUCAGAGCUCGAGAACAUCUUCGGAUGCAGAGGAGGCAGGCUUCGGUGGCGCGAUAGCCCCAACGUCCUCAACCUCCAAUGCAUCCCACCACAUGAUGGUGCUUGAAUAGCCUUGGUUUUUUG [U7G G71C A111G C115U G120U] = not met
• GACCAAUCUGCCCUCAGAGAUCGAGAACAUCUUCGGAUGCAGAGGAGGCAGGCUUCGGUGGCGCGAUAGCGCCAACGUCCUCAACCUCCAAGGCAUCCCACCACAUGAUUAUGCCUGAAGAGCCUUGGUUUUUUG [C20A U92G G110U] = not met
• GACCAAUCUGCCCUCAGAGCUCGAGAACAUCUUCGGAUGCAGAGUAGGCAGGCUUCGGUGGCACGAUAGCGCCAACGGCCUCAACCUCCAAUGCAUCCCACCACAUGAUGAUGCCUGAACAGCCUUGGUUUUUUG [G45U G63A U78G G120C] = met
• GACCAAUCUGCCCUCAGAGCUCGAGAACAUCUUCGGAUGGAGAGACGGCACGCUUCGAUGGCCCGAUAGCGCCAACGUCCUCAACCUCCAAUGCAUCCCACCACAUGAUAAUUCCUCAAGAGCCUUGGUUUUUUG [C40G G45A A46C G51C G58A G63C G110A G113U G117C] = not met
• GACCAAUCUGCCCUCAGAGCUCGAGAUCAUCUUCGGAUGCAGAGGAGGCAGGCUUCGGUGGCGCGAUAGCGCCAACGUCCUCAACCUCCAAUGGAUCCGACCAUAUGAUUAUGGCUGAAGAGCCUUGGUUUUUUG [A27U C94G C99G C104U G110U C114G] = not met
• GACCAAUCUACCCUCAGAGCUCGAGAACAUCUUCGGAUGCAGAGGAGGCAGGCUUCGGUGGCACGAUAGCGCCAACGUCCUCAACCUCCAAUGCAUCCCACCACAUGAUGAUGCCUGAAGAGCCUUGGUUUUUUG [G10A G63A] = met
• GACCAAUCUGCCCUCAGAGCUCGAGAACAUCUUCGGAUCCAGAGGAGGUAGGCUUCGGUGGCGCGAUAGCGCCAACGUCCUCAACCUCCAAUGCAUCCCACCACAUGAUGAUGCCUGAAGAGCCUUGGUUUUUUG [G39C C49U] = met
• GACCAAUCUGCCCUCAGAGCUCGAGAACAUCUUCGGAUGCAGAGGAGCCAGGCUUUGGUGGCGCGAUAGCGCCAACGUCCUCAACCUCCAAUGCAUCCCAACACAUGAUGACGCCUGAAGAGCCUUGGUUUUUUC [G48C C56U C101A U112C G135C] = met
• GACCAAUCUGCCCUCUGAGCUCGAGAACAUCUUCGGAUGCAGAGGAGGCAGGCUUCGGUGGCGCGAUAGCGCCAACGUCCUCAACCUCCAAUGCAACCCACCACAUGAUGAUGCCUGAAGAGCCUUGGUUUUUUG [A16U U96A] = met
• GUCCAAUGUGCCCUCAGAGCUCGAGAACAUCUUCGGAUGCAGAGGAGGCAGGCUUCGGUGGCGCGAUAGCGCCAACGUCCUCAACCUCCAAUGCAUCCCAGCACAUGAUGAUGCCUGAAGAGCCUUGGUUUUUUG [A2U C8G C101G] = met
• GACCAAUCUGCCCUCAGAGCUCGAGAACAUCUUCGGAUGCAGAGGAGGCAGGCUUCGGAGGCGCGAUAGCGCCAACGUCCUCAACCUCCAAUGCAUCCCACCACAUGAUGAUGACUGAAGAGCCUUGGUAUUUUG [U59A C114A U130A] = met
• GACCAAUCUGCCCUCAGAGCUCGAGAACAUCUUCGGAUGCAGAGGAGGCAGGCUUCGGUGGCGCGAUAUCGUCAACGUCCUCAACCUCCAAUGCAUCCCACCACAUGAUGAUGCCUGAAGAGCCUUGGUUUUUUG [G69U C72U] = met
• GACCAAUCUGCCCUCAGAGCUCGAGAACAUCUUCGGAUGCAGAAGAGGUAGGCUUCGGUGGCGCGAUAGCACCAACGUCCUCAACCUCCAAUGCAUCCCACCACAUGAUGAUGCCUCAAGAGCCUUGGUUUUGUG [G44A C49U G71A G117C U133G] = not met
• GACCAAUCUGCCCUCAGAGCUCGAGAACAUCUUCGUAUGCAGAGGAGGCAGGCUUCGGUGGCGCGAUAGCGCCAACGUCCUCAACCUCCAAUGCAUCCCACCGCAUGAUGAUGCCUGAAGAGCCUUGGUUUUUUG [G36U A103G] = not met
• GACCAAUCUGCGCUCAGAGCUCGAGAACAUCUUCGGAUGUAGAGGAGGUAGGCUUCGGUGGCGCCAUAGCGCCAACGUCCUCAACCUCCAAUGCAUCCCACCACAUGAUGAUGGCUGAAGAGCCUUGGUUUUUUG [C12G C40U C49U G65C C114G] = not met
• GACCAAACUGCCCUCAGUGCUCGAGAACAUCUUCGGAUGCAGAGGAGGCAGGCUUCGGUGGCGCGAUAGCACCAACGUCCUCAACCUCCAAUGCAUCCCACCACAUGAUGAUGCCUGAUGAUCCUUGGUUUUUUU [U7A A18U G71A A119U G122U G135U] = not met
• GACCAAUCUGCCCUCAGAGCUCGAGAACAUCUUCGGAUGUCGAGGAGGCAGGCUUCGGUGGCGCGAUAGCGCCAAUGUCCUCAACCUCCAAUGCAUCCCACCACAUGAUGAAGCCUGAAGAACCUUGGUUUUUUG [C40U A41C C76U U112A G122A] = not met
• GACCAAUCUGCCCUCAGAGCUCGAGAACAUCUUCGGAUGCGGAGGAGGCAGGCUUAGGUGGCGCGAUAGCGCCAUCGUCCUCAACCUCCAAUGCAUCCCACCACAUGAUGAUGCCUUAAGAGCCUUGGUUUUUUG [A41G C56A A75U G117U] = not met
